Tested on: U2OS
Experimental Protocol: Multiplex assay against U2OS
Format: toxicity, cell-based
Experimental Conditions: human, 48 h, 1 µM, compound concentration 1 uM, replicate 1
Experimental Readout: Population Membrane Permeable-Phenotype (%)
Form entry: value (%) — number only.

Entry CCCOc1ccc2[nH]cc(C3=CCNCC3)c2n1.Cl — recorded Population Membrane Permeable-Phenotype (%) = 5

Entry O=C(NCCN1CCC(n2c(=O)[nH]c3cc(Cl)ccc32)CC1)c1ccc(F)cc1 [HALOPEMIDE] — recorded Population Membrane Permeable-Phenotype (%) = 4

Entry N#Cc1cc(F)cc(-c2nc(-c3ccc(F)cn3)no2)c1 — recorded Population Membrane Permeable-Phenotype (%) = 4

Entry Cc1cnc(-c2cc(N3CCN(C(=O)CCS(C)(=O)=O)CC3)ncc2Cl)c(C)c1 — recorded Population Membrane Permeable-Phenotype (%) = 3

Entry Cc1sc2c(c1C)C(c1ccc(Cl)cc1)=N[C@@H](CC(=O)NCCCCCCCCNC(=O)COc1cccc3c1C(=O)N(C1CCC(=O)NC1=O)C3=O)c1nnc(C)n1-2 (some centres not stated) — recorded Population Membrane Permeable-Phenotype (%) = 6

Entry CC(C)(C)c1cc(NC(=O)Nc2ccc(-c3cn4c(n3)sc3cc(OCCN5CCOCC5)ccc34)cc2)no1 — recorded Population Membrane Permeable-Phenotype (%) = 7

Entry Cl.NCCc1ccc(O)c(O)c1 [DOPAMINE HYDROCHLORIDE] — recorded Population Membrane Permeable-Phenotype (%) = 5

====

Test system: HEK-293T
Experimental Protocol: Multiplex assay against HEK293T
Format: toxicity, cell-based
Experimental Conditions: human, 12 h, 1 µM, compound concentration 1 uM, replicate 1
Assignment: determine reported Population Normal (%) for the given molecules.
Form entry: value (%) — number only.

Entry CCCOc1ccc2[nH]cc(C3=CCNCC3)c2n1.Cl — recorded Population Normal (%) = 94

Entry Cc1cccc(NC(=O)CN2CCC(c3ccccn3)CC2)c1.Cl.Cl — recorded Population Normal (%) = 94

Entry Cl.N=C(N)NC(=O)Cc1c(Cl)cccc1Cl [GUANFACINE HYDROCHLORIDE] — recorded Population Normal (%) = 92

====

System: U2OS
Experimental Protocol: Multiplex assay against U2OS
Type: toxicity, cell-based
Experimental Conditions: human, 12 h, 1 µM, compound concentration 1 uM, replicate 2
Experimental Readout: Total Cell Count
Form field (numeric): enter value without unit.

Entry Cl.NCCc1ccc(O)c(O)c1 [DOPAMINE HYDROCHLORIDE] — recorded Total Cell Count = 104

Entry CC(/C=C1\SC(=S)N(CCCC(=O)Nc2ccc(C(=O)O)c(O)c2)C1=O)=C\c1ccccc1 — recorded Total Cell Count = 133

Entry CN[C@@H](C)C(=O)N[C@H](C(=O)N1CCC[C@H]1C(=O)Nc1snnc1-c1ccccc1)C1CCCCC1 [GDC-0152] — recorded Total Cell Count = 121

Entry CCCCC1=NC2(CCCC2)C(=O)N1Cc1ccc(-c2ccccc2-c2nnn[nH]2)cc1 [IRBESARTAN] — recorded Total Cell Count = 124

Entry Cc1cnc(-c2cc(N3CCN(C(=O)CCS(C)(=O)=O)CC3)ncc2Cl)c(C)c1 — recorded Total Cell Count = 111

Entry O=C1[C@H](Cc2ccc(O)cc2)N2C(=O)CCN(C(=O)NCc3ccccc3)[C@H]2CN1Cc1cccc2ccccc12 — recorded Total Cell Count = 113

====

System: HEK-293T
Experimental Protocol: Multiplex assay against HEK293T
Assay type: toxicity, cell-based
Experimental Conditions: human, 24 h, 1 µM, compound concentration 1 uM, replicate 1
Please respond with Fulfilled when measured Population Tubulin-Different-Phenotype (%) is strictly beneath 20%, and with Not fulfilled in all other cases.

Determine whether this compound shows Population Tubulin-Different-Phenotype (%) lower than 20% (ties excluded): CC(=O)Nc1cccc2c1c(Sc1ccc(Cl)cc1)c(C)n2CC(=O)O
Not fulfilled

Determine whether this compound shows Population Tubulin-Different-Phenotype (%) lower than 20% (ties excluded): O=C(CCCc1ccccc1)Nc1nc2ccccc2c(=O)s1
Fulfilled

Determine whether this compound shows Population Tubulin-Different-Phenotype (%) lower than 20% (ties excluded): Cc1cnc(-c2cc(N3CCN(C(=O)CCS(C)(=O)=O)CC3)ncc2Cl)c(C)c1
Not fulfilled

Determine whether this compound shows Population Tubulin-Different-Phenotype (%) lower than 20% (ties excluded): COc1cccc2c1c(NS(=O)(=O)c1ccc(Cl)s1)nn2Cc1cccc(CNC(=O)C(C)(C)O)c1
Fulfilled

Determine whether this compound shows Population Tubulin-Different-Phenotype (%) lower than 20% (ties excluded): O=C(NCCN1CCC(n2c(=O)[nH]c3cc(Cl)ccc32)CC1)c1ccc(F)cc1 [HALOPEMIDE]
Not fulfilled

====

Test system: U2OS
Experimental Protocol: Multiplex assay against U2OS
Format: toxicity, cell-based
Experimental Conditions: human, 24 h, 10 µM, compound concentration 10 uM, replicate 2
Experimental Readout: Population Healthy Nuclei (%)
Form entry: value (%) — number only.

Entry Cl.NCCc1ccc(O)c(O)c1 [DOPAMINE HYDROCHLORIDE] — recorded Population Healthy Nuclei (%) = 77

Entry COc1cccc2c1c(NS(=O)(=O)c1ccc(Cl)s1)nn2Cc1cccc(CNC(=O)C(C)(C)O)c1 — recorded Population Healthy Nuclei (%) = 68

Entry NCCc1cn(S(=O)(=O)c2c(Cl)nc3sccn23)c2ccccc12.O=C(O)C(=O)O — recorded Population Healthy Nuclei (%) = 46

Entry CCCOc1ccc2[nH]cc(C3=CCNCC3)c2n1.Cl — recorded Population Healthy Nuclei (%) = 78

Entry CC(C)(C)c1cc(NC(=O)Nc2ccc(-c3cn4c(n3)sc3cc(OCCN5CCOCC5)ccc34)cc2)no1 — recorded Population Healthy Nuclei (%) = 58

Entry Cc1onc(-c2ccccc2Cl)c1C(=O)N(C)c1ccc(Cl)cc1 — recorded Population Healthy Nuclei (%) = 66

Entry CCCCCC(O)/C=C/[C@H]1C(=O)CC(O)C1C/C=C\CCCC(=O)O (stereo not given in full) — recorded Population Healthy Nuclei (%) = 74

Entry Cc1cccc(NC(=O)CN2CCC(c3ccccn3)CC2)c1.Cl.Cl — recorded Population Healthy Nuclei (%) = 73

Entry CC(/C=C1\SC(=S)N(CCCC(=O)Nc2ccc(C(=O)O)c(O)c2)C1=O)=C\c1ccccc1 — recorded Population Healthy Nuclei (%) = 72

Entry CN1CCN(c2cc(-c3ccccc3)nc(N)n2)CC1 — recorded Population Healthy Nuclei (%) = 80

====

Tested on: HEK-293T
Experimental Protocol: Multiplex assay against HEK293T
Assay type: toxicity, cell-based
Experimental Conditions: human, 24 h, 10 µM, compound concentration 10 uM, replicate 2
Experimental Readout: Population Fragmented Nuclei (%)
Form entry: value (%) — number only.

Entry CCCCC1=NC2(CCCC2)C(=O)N1Cc1ccc(-c2ccccc2-c2nnn[nH]2)cc1 [IRBESARTAN] — recorded Population Fragmented Nuclei (%) = 11

Entry CC[C@@H](C)Nc1nc(C)nc2c(-c3ccc(OC)nc3C)c(C)nn12 [PEXACERFONT] — recorded Population Fragmented Nuclei (%) = 7

Entry CCCOc1ccc2[nH]cc(C3=CCNCC3)c2n1.Cl — recorded Population Fragmented Nuclei (%) = 6

Entry O=C(CCCc1ccccc1)Nc1nc2ccccc2c(=O)s1 — recorded Population Fragmented Nuclei (%) = 8

====

Assignment: determine reported Population Mitochondria Different-Phenotype (%) for the given compounds.
Test system: U2OS
Experimental Protocol: Multiplex assay against U2OS
Format: toxicity, cell-based
Experimental Conditions: human, 12 h, 1 µM, compound concentration 1 uM, replicate 1
Form entry: value (%) — number only.

// Population Mitochondria Different-Phenotype (%) (U2OS) for Br.CS(=O)(=O)Nc1c(O)ccc2c1CCCC2C1=NCCN1 (stereo unspecified) = 2

// Population Mitochondria Different-Phenotype (%) (U2OS) for Cl.NCCc1ccc(O)c(O)c1 [DOPAMINE HYDROCHLORIDE] = 1

// Population Mitochondria Different-Phenotype (%) (U2OS) for CC(=O)Nc1cccc2c1c(Sc1ccc(Cl)cc1)c(C)n2CC(=O)O = 0

// Population Mitochondria Different-Phenotype (%) (U2OS) for CC(/C=C1\SC(=S)N(CCCC(=O)Nc2ccc(C(=O)O)c(O)c2)C1=O)=C\c1ccccc1 = 1

// Population Mitochondria Different-Phenotype (%) (U2OS) for O=C1[C@H](Cc2ccc(O)cc2)N2C(=O)CCN(C(=O)NCc3ccccc3)[C@H]2CN1Cc1cccc2ccccc12 = 1

// Population Mitochondria Different-Phenotype (%) (U2OS) for CC(C)c1noc(N2CCC(COc3ccc(-c4ccc(S(C)(=O)=O)cc4)nc3)CC2)n1 = 2

// Population Mitochondria Different-Phenotype (%) (U2OS) for CCCOc1ccc2[nH]cc(C3=CCNCC3)c2n1.Cl = 1

// Population Mitochondria Different-Phenotype (%) (U2OS) for N#Cc1cc(F)cc(-c2nc(-c3ccc(F)cn3)no2)c1 = 0

// Population Mitochondria Different-Phenotype (%) (U2OS) for COc1ccccc1N1CCN(C[C@@H](C(=O)NC(C)(C)C)c2ccccc2)CC1.Cl.Cl = 3

// Population Mitochondria Different-Phenotype (%) (U2OS) for C[C@H](N)COC(=O)[C@@H](CCCCN)NC(=O)Cc1c(-c2ccc3ccccc3c2)[nH]c2c1ccc1ccccc12 = 3

// Population Mitochondria Different-Phenotype (%) (U2OS) for Cc1sc2c(c1C)C(c1ccc(Cl)cc1)=N[C@@H](CC(=O)NCCCCCCCCNC(=O)COc1cccc3c1C(=O)N(C1CCC(=O)NC1=O)C3=O)c1nnc(C)n1-2 (stereo partly specified) = 4

// Population Mitochondria Different-Phenotype (%) (U2OS) for N#Cc1c(Oc2cccc(OS(=O)(=O)CCCC(F)(F)F)c2)cccc1C(F)(F)F = 2

// Population Mitochondria Different-Phenotype (%) (U2OS) for CN[C@@H](C)C(=O)N[C@H](C(=O)N1CCC[C@H]1C(=O)Nc1snnc1-c1ccccc1)C1CCCCC1 = 24

// Population Mitochondria Different-Phenotype (%) (U2OS) for COC[C@@H](c1ccc(C(F)(F)F)cc1)N1CCN(C2(C)CCN(C(=O)c3c(C)ncnc3C)CC2)C[C@@H]1C.O=C(O)/C=C\C(=O)O [VICRIVIROC MALEATE] = 4

// Population Mitochondria Different-Phenotype (%) (U2OS) for CN1CCN(c2cc(-c3ccccc3)nc(N)n2)CC1 = 2

// Population Mitochondria Different-Phenotype (%) (U2OS) for Cc1cccc(NC(=O)CN2CCC(c3ccccn3)CC2)c1.Cl.Cl = 2

// Population Mitochondria Different-Phenotype (%) (U2OS) for Cl.N=C(N)NC(=O)Cc1c(Cl)cccc1Cl [GUANFACINE HYDROCHLORIDE] = 1

// Population Mitochondria Different-Phenotype (%) (U2OS) for CN(C)C(=O)Cn1cc(-c2ccc(-c3cncc4ccccc34)cc2)cn1 = 4

// Population Mitochondria Different-Phenotype (%) (U2OS) for CC(C)(C)c1cc(NC(=O)Nc2ccc(-c3cn4c(n3)sc3cc(OCCN5CCOCC5)ccc34)cc2)no1 = 4

// Population Mitochondria Different-Phenotype (%) (U2OS) for Cc1cnc(-c2cc(N3CCN(C(=O)CCS(C)(=O)=O)CC3)ncc2Cl)c(C)c1 = 1

// Population Mitochondria Different-Phenotype (%) (U2OS) for CC(C)COc1ccc(CNC(=O)N(Cc2ccc(F)cc2)C2CCN(C)CC2)cc1 = 3

// Population Mitochondria Different-Phenotype (%) (U2OS) for CC[C@@H](C)Nc1nc(C)nc2c(-c3ccc(OC)nc3C)c(C)nn12 = 3

// Population Mitochondria Different-Phenotype (%) (U2OS) for Cc1onc(-c2ccccc2Cl)c1C(=O)N(C)c1ccc(Cl)cc1 = 2

// Population Mitochondria Different-Phenotype (%) (U2OS) for COc1cccc2c1c(NS(=O)(=O)c1ccc(Cl)s1)nn2Cc1cccc(CNC(=O)C(C)(C)O)c1 = 1

// Population Mitochondria Different-Phenotype (%) (U2OS) for CCCCC1=NC2(CCCC2)C(=O)N1Cc1ccc(-c2ccccc2-c2nnn[nH]2)cc1 = 1

// Population Mitochondria Different-Phenotype (%) (U2OS) for Cc1noc(-c2ccc(-c3ccc(CC(=O)O)cc3)cc2)c1NC(=O)O[C@H](C)c1ccccc1Cl = 5
